# TARGET SYSTEM: DNA polymerase beta (Homo sapiens)
# TEST: qHTS Assay for Inhibitors of DNA Polymerase Beta
# MEASUREMENT SETUP: Pol beta primer extension/strand displacement, fluorescence kinetic; series mostly up to 114 µM
Among all 340,000 compounds or so, about 4,500 (1.3%) were called active. Not shown: some 5% with an inconclusive outcome. Calls follow the shape of the dose curve; as a rule, active = well fitted inhibition curve with a large enough effect; inconclusive = small, poorly fitted or top-dose-only effect, or another doubt; inactive = no such curve, though single readings can be large or run the other way. Many of the other results were omitted from the sample, so actives are more common in it than they were.
Please reply with one of these outcomes: active, inactive

Identify the outcome logged in this assay for the compound shown: O=S(=O)(NCC(c1ccccc1)N1CCc2ccccc21)c1ccccc1 (configuration not stated)
inactive

====

# TARGET SYSTEM: DNA polymerase beta (Homo sapiens)
# TEST: qHTS Assay for Inhibitors of DNA Polymerase Beta
# MEASUREMENT SETUP: Pol beta primer extension/strand displacement, fluorescence kinetic; series mostly up to 114 µM
Screen size: about 340,000 compounds; about 4,500 (1.3%) were called active. Roughly 5% stayed inconclusive and do not appear here. Calls come from the whole dose curve; as a rule, active = well fitted inhibition curve with a large enough effect; inconclusive = small, poorly fitted or top-dose-only effect, or another doubt; inactive = no such curve, though single readings can be large or run the other way. What follows is part of a selection rich in actives, with near analogues and random picks from the rest.
Please reply with one of these outcomes: y for active, n for inactive

Completed entries (count: 5):
1) C=Cc1ccc(Cn2c(C(=O)O)c(CNC3CCCC3)c3ccc(C)cc32)cc1 :: n
2) O=C(CC1N=C2c3ccccc3N=C(SCc3cccc(Cl)c3)N2C1=O)NCc1ccc2c(c1)OCO2 (stereo not given) :: n
3) COc1ccc(NC(=O)c2cnc(NS(=O)(=O)c3ccccc3)nc2)cc1 :: n
4) COc1ccc(S(=O)(=O)Nc2cc3c(C(=O)OC(C)C)c(C)oc3c3ccccc23)cc1 :: n
5) CN(C)CCCn1c(-c2ccc(Cl)cc2)csc1=Nc1ccccc1 :: n

Identify the outcome logged in this assay for the compound shown: O=C(N/N=C/c1ccc(O)c(O)c1)C1c2ccccc2Oc2ccccc21
y

Identify the outcome logged in this assay for the compound shown: CCC(C)NC(=O)C1c2ccccc2Oc2ccccc21 (stereo not given)
n

Identify the outcome logged in this assay for the compound shown: O=C(CC1N=C2c3ccccc3N=C(SCc3ccccc3Cl)N2C1=O)NCc1ccco1 (stereo not given)
y

Identify the outcome logged in this assay for the compound shown: Cc1ccc(S(=O)(=O)c2nc(-c3cccs3)oc2N2CCCCC2)cc1
n

Identify the outcome logged in this assay for the compound shown: O=C(CC1N=C2c3ccccc3N=C(SCc3ccc(F)cc3)N2C1=O)NCc1cccs1 (stereo not given)
n

====

# TARGET SYSTEM: DNA polymerase beta (Homo sapiens)
# TEST: qHTS Assay for Inhibitors of DNA Polymerase Beta
# MEASUREMENT SETUP: Pol beta primer extension/strand displacement, fluorescence kinetic; series mostly up to 114 µM
# Description: The base excision repair system in human cells is a target for therapeutic modulation of the response to irradiation treatment and DNA-damaging drugs. […] A stepwise description of the 1536-well assay is shown in next Table. […] The plates were incubated for 15 min at room temperature, and 1 uL substrate (50 nM final concentration) were added to start the reaction and immediately read at 0 min read on Viewlux reader. […]
The campaign covered roughly 340,000 compounds. About 4,500 (1.3%) were called active. Roughly 5% stayed inconclusive and do not appear here. The call rests on the fitted dose curve; in most records, active means well fitted inhibition curve with a large enough effect; inconclusive means small, poorly fitted or top-dose-only effect, or another doubt; inactive means no such curve, though single readings can be large or run the other way. The sample holds actives, similar compounds and a random draw of the others, so the mix is not that of the screen.
Please reply with one of these outcomes: active, inactive

1. CCOc1ccc(S(=O)(=O)Nc2ccc3oc4c(c3c2)CC(C)CC4)cc1 (stereo unspecified) :: inactive
2. Cc1ccccc1NC(=O)Cn1cc(C(=O)c2cccs2)c2ccccc21 :: inactive
3. CCOc1cc(C2C(C(=O)OC)=C(C)NC3=C2C(=O)c2ccccc23)ccc1O (stereo unspecified) :: inactive
4. CCOc1ccc(N(C)S(=O)(=O)c2cc(-c3cnc(C)o3)ccc2OC)cc1 :: inactive
5. Cc1cc(C)cc(NC(=O)c2cnc3sc(N4CCCC4)nn3c2=O)c1 :: inactive

Identify the outcome logged in this assay for the compound shown: Cc1cccc(C(=O)N2c3nc(-c4ccco4)nn3C3(CCCCC3)[C@@H]3CCCC[C@@H]32)c1
inactive

Identify the outcome logged in this assay for the compound shown: Cc1cccc(Cn2c(CN3CCC(C(=O)NCc4ccccc4Cl)CC3)cc3ccccc32)c1
inactive

Identify the outcome logged in this assay for the compound shown: COc1cc(OC)c(NC(=O)Cc2ccc(-n3c(C)nc4cccnc43)cc2)cc1Cl
inactive

Identify the outcome logged in this assay for the compound shown: COc1cccc(CNS(=O)(=O)c2ccc3c(c2)CC(C)N3C(C)=O)c1 (stereo unspecified)
inactive

Identify the outcome logged in this assay for the compound shown: CCN(CCCNC(=O)CSc1cc(=O)n(C)c2cc(Cl)ccc12)c1cccc(C)c1
inactive

Identify the outcome logged in this assay for the compound shown: O=[N+]([O-])c1ccc(N2CCSCC2)cc1O
inactive

Identify the outcome logged in this assay for the compound shown: CCOC(=O)c1c(NC(=O)Cc2coc3ccc(CC)cc23)sc2c1CCC2
inactive

Identify the outcome logged in this assay for the compound shown: Cc1nc2sc(C)c(C)n2c(=O)c1S(=O)(=O)NCCc1ccc(Cl)cc1
inactive

Identify the outcome logged in this assay for the compound shown: CCCCN(CCCNC(=O)c1cc(Nc2ccccc2OC)nc2ccccc12)c1ccccc1
inactive

Identify the outcome logged in this assay for the compound shown: CCc1ccc(N(CC)C(=O)CCn2cnc3onc(-c4ccc(F)cc4)c3c2=O)cc1
inactive

Identify the outcome logged in this assay for the compound shown: CCC(=O)N1c2ccc(S(=O)(=O)NCc3ccco3)cc2CC1C (stereo unspecified)
active

Identify the outcome logged in this assay for the compound shown: CC(=O)Nc1cccc(NC(=O)CSc2nccn2Cc2ccc3c(c2)OCO3)c1
inactive

Identify the outcome logged in this assay for the compound shown: CCOC(=O)c1c(C)oc2nc(C)nc(N3CCN(c4ccc(OC)cc4)CC3)c12
inactive

Identify the outcome logged in this assay for the compound shown: COc1ccc(N2CCN(c3nc(-c4ccccc4F)nc4ccccc34)CC2)cc1
inactive

Identify the outcome logged in this assay for the compound shown: O=C1CSC(=S)N1c1ccc(O)cc1
inactive

Identify the outcome logged in this assay for the compound shown: COc1cccc(CNS(=O)(=O)c2ccc3c(c2)CC(C)N3C(=O)C2CCC2)c1 (stereo unspecified)
inactive
